Cited source: patent US5622948A

- measured on: COX I (Homo sapiens, UniProt P23219)
- Sequence (P23219 24-599): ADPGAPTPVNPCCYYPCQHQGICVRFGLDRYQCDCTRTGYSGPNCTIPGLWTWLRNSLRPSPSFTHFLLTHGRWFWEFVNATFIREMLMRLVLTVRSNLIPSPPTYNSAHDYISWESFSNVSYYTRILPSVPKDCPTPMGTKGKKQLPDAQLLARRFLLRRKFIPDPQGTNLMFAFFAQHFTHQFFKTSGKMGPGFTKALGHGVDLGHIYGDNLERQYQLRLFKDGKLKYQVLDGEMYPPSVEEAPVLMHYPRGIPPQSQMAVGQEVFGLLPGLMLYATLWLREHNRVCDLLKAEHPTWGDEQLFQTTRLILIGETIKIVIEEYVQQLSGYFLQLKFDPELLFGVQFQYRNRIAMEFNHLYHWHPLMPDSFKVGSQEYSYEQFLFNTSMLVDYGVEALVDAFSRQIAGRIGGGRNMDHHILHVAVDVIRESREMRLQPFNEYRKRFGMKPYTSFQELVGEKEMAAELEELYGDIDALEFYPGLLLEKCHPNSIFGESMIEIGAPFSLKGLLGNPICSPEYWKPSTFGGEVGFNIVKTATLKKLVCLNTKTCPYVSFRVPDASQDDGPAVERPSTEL
- protocol summary: thromboxane B2 production in washed human platelets
- Format: cell-based
- Parameters: A 2 Kb fragment containing the coding region of COX I; made in house; host or cells: Sf9 insect cells, baculovirus (cDNA from Oxford Biomedical Research)
- test settings: 30 min incubation; b) 10 min activation, 20 μM AA; EIA; read-out: COX I IC50, inhibition of thromboxane B2 production
attribute measured: IC50

compound="Cc1cc(Cc2ccc(=O)[nH]n2)n(C)c1C(=O)c1ccc(Cl)cc1 [Compound 16]" attribute_measured=IC50 reported="> 100 µM"

* * *

- measured on: UniProtKB P23219
- protocol summary: radiometric assay, COX I inhibition (human recombinant, baculovirus expressed, partially purified)
- Type: biochemical
- Design: A 2 Kb fragment containing the coding region of COX I; made in house; host or cells: Sf9 insect cells, baculovirus (cDNA from Oxford Biomedical Research)
- test settings: radiometric assay, human recombinant baculovirus expressed enzyme; read-out: COX I IC50 (Table 2)
pIC50: −log10 of the molar value.
Label false if pIC50 falls below 4; label true in every other case.

compound="Cc1ccc(C(=O)c2ccc(C(C)c3ccc(=O)[nH]n3)n2C)cc1 (stereo not drawn)" measured_on="UniProtKB P23219" assigned_category=false
compound=Cc1cccc(C)c1Cn1nc(Cc2cc(C)c(C(=O)c3ccc(Cl)cc3)n2C)ccc1=O measured_on="UniProtKB P23219" assigned_category=true
compound=Cc1cc(Cc2ccc(=O)[nH]n2)n(C)c1C(=O)c1ccc(F)cc1 measured_on="UniProtKB P23219" assigned_category=true
compound=Cn1c(Cc2ccc(=O)[nH]n2)ccc1C(=O)c1ccc(Br)cc1 measured_on="UniProtKB P23219" assigned_category=false
compound=Cc1cc(Cc2ccc(=O)n(CCO)n2)n(C)c1C(=O)c1ccc(Cl)cc1 measured_on="UniProtKB P23219" assigned_category=true
compound="Cc1cc(C(C)c2ccc(=O)[nH]n2)n(C)c1C(=O)c1ccc(Cl)cc1 (stereo not drawn)" measured_on="UniProtKB P23219" assigned_category=true
compound=COC(=O)Cn1nc(Cc2cc(C)c(C(=O)c3ccc(Cl)cc3)n2C)ccc1=O measured_on="UniProtKB P23219" assigned_category=true
compound=Cc1cc(Cc2ccc(=O)[nH]n2)n(C)c1C(=O)c1ccccc1 measured_on="UniProtKB P23219" assigned_category=true
compound=Cn1c(Cc2ccc(=O)[nH]n2)ccc1C(=O)c1cccs1 measured_on="UniProtKB P23219" assigned_category=false
